B1: TPR t1 (parent)
chain: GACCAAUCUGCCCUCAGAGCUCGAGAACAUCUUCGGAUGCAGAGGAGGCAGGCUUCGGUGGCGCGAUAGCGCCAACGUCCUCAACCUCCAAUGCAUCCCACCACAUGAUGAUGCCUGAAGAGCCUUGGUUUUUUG

# Variants of: B1
# measurement notes: polymerase ribozyme fitness, log enrichment relative to wild type (log ratio); higher = more active; in vitro selection for triplet polymerase activity
recorded metric: polymerase ribozyme fitness (log ratio)
Please give the numeric answer without any surrounding text.

Some variants with known polymerase ribozyme fitness (log ratio) results, for comparison:
GACCAAUCUGCCCUCAGAGCUCGAGAACAUCUUCGGAUGCAGAGGAGGCAGGCUUCGGUGGAGCGAUAGCGCCAACGUCCUAAAUCUCCAAUGCAUCCCACCACAUGAUGAUGCCUGAAGAGCCUUGGUUUUUUG [C62A C82A C85U] | -2.3
GACCAAUCUGCCCUCAGAGCGCGAGAACAUUUUCGGAUGCAGAGGAGGCAGGCUUCGGUGGCGCGAUAGCGCCAACGCCCUCAAACUCCAAUGCAUCCCACCACAUGAUGAGGCCUGAAGAGCCUUGGUUUUUUG [U21G C31U U78C C85A U112G] | -5.44
GACCAAUCUGCCCUCAGAGCUCGAGAACAUCUUAGGAUGCAGAGGAGGCAGGAUUCGGUGGCGCGAUAGCGCCAACGUCCUCAACCUCCAAUGCAUCCCACCACAUGAUGAUGCCUGAAGAGCCUUGGUUUUUUG [C34A C53A] | -2.86
GACCAAUCUGCCCUCAGAGCUCGAGAACAUCUUCGGAUGCAGAGGAGGCAGGCUUCGGUGGCGCGUUAGCGCCAACGUCCUCUACCUCCAAUGCAUCCCACCACAUGAUGAUGCCUGAAGAGCCUUGGUUUUUUG [A66U A83U] | -1.4
GACCAAUCUGCCCUCAUAGCUCGAGAACAUCUUCGGAUGCAGAGGAGGCAGGCUUCGGUCGCGCGAUAGCGCCAACGUCCUCAACCUCCAAUGCAUCCCACCACAUGAUGAUGCCUGAAGGGCCUUGGUUUUUUG [G17U G60C A121G] | -0.0519

Moving on to another variant below.
**Query** Could you share which polymerase ribozyme fitness (log ratio) value was measured for GACCAAUCUGCCCUCAGCGCUCGGGAACAUCUUCGGAUGCAGAGGAGGCAGGCUUCGAUGGCGCGAUAGCGCCAACGUCCUCAACCUCCAACGCAUCCCACCACAUGAUGAUGCCUGAAGAGCCUUGGUUUUUUG [A18C A24G G58A U92C] ?
**Result** -5.73
